Experiment: Rat Oral Bioavailability Assay
Format: in vivo
Conditions: plasma, 1 mg/kg, male Sprague Dawley rats, oral suspension vs intravenous, read-out: Fraction bioavailable relative to the intravenous dose (% F)
VALUE_KIND: bioavailability (%)

| MOLECULE | REPORTED_VALUE |
| --- | --- |
| CS(=O)(=O)O.Cc1nc2ccc(-c3nc(Nc4ccc(C5CCN(C(C)C)CC5)cn4)ncc3F)cc2n1C1CCCC1 [Example 22] | 48.5 |

====

Experiment: Solubility Assay
Format: physicochemical
Settings: aqueous buffer, thermodynamic from solid; pH 8 phosphate buffer, ambient temperature, at least 16 hours, target 2.0 mg/mL
Protocol: The appropriate amounts of test compound are weighed into separate chromatographic vials. […] The vials are capped securely and placed in a rotation device. […] Solubility values are calculated using a four-level calibration curve. The line of best fit for peak area of calibration standards calculated by chromatographic management data system using linear or quadratic through zero fit is used. […]
VALUE_KIND: solubility (µg/mL)

| SAMPLE_SMILES | VALUE_KIND | REPORTED_VALUE |
| --- | --- | --- |
| CCN1CCN(Cc2ccc(Nc3ncc(F)c(-c4cc(F)c5nc(C)n(C(C)C)c5c4)n3)nc2)CC1.CS(=O)(=O)O | solubility | 2100 |
